targetOrSystem: α1A-AR (Homo sapiens)
Construct: expressed in transfected cells; host or cells: HEK293
Sequence (P35348 1-466): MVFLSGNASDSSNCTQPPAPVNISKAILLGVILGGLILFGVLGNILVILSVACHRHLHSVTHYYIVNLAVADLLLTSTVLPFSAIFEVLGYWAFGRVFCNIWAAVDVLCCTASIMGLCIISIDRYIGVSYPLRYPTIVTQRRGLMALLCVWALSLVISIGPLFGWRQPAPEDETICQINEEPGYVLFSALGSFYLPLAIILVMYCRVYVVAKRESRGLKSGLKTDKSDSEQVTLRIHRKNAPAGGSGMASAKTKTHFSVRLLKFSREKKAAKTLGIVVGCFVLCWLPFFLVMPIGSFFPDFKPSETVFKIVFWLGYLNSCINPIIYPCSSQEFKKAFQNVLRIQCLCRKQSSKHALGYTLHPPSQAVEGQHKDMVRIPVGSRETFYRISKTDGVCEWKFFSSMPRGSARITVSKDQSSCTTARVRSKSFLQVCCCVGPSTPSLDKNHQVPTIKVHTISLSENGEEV
assayOverview: Tag-lite receptor binding assay, HEK293 cells expressing SNAP-α1A-AR
particulars: Tag-lite binding, HEK293 SNAP-α1A-AR

compound	targetOrSystem	unitSpec	IC50
COc1cc2c(cc1OC)CN1CCc3cc4c(cc3[C@@H]1C2)OCO4 [DC037009]	α1A-AR (Homo sapiens)	nM	2.83
C[C@H](Cc1cc2c(c(C(N)=O)c1)N(CCCO)CC2)NCCOc1ccccc1OCC(F)(F)F [Silodosin, reference compound]	α1A-AR (Homo sapiens)	nM	0.07
COc1cc2c(cc1OCc1ccccc1)C[C@H]1c3cc4c(cc3CCN1C2)OCO4 [DC037016]	α1A-AR (Homo sapiens)	nM	16.6
COc1cc2c(cc1OCC(F)F)C[C@H]1c3cc4c(cc3CCN1C2)OCO4 [DC037018]	α1A-AR (Homo sapiens)	nM	0.95

* * *

assayOverview: Pharmacokinetics study in rats (gavage and intravenous)
Assay type: in vivo, SD rats
particulars: male, SD, plasma, oral; rat, gavage 20 mg/kg versus intravenous 10 mg/kg
measuredProperty: bioavailability (%)

molecule	unitSpec	valueReported
COc1cc2c(cc1OC)CN1CCc3cc4c(cc3[C@@H]1C2)OCO4 [DC037009]	%	34.2

* * *

assayOverview: Solubility in different pH solution and pH changes of the solution
Type: physicochemical
particulars: pH 2 solution, pH 2, simulated gastric fluid, pH = 2 solution; read-out: Solubility (2)
measuredProperty: solubility

COc1cc2c(cc1OC)CN1CCc3cc4c(cc3[C@@H]1C2)OCO4 > 1000 µg/mL

* * *

assayOverview: Solubility in different pH solution and pH changes of the solution
Type: physicochemical
particulars: pH = 6 solution, pH 6, aqueous buffer, pH = 6 solution; read-out: Solubility (2)
measuredProperty: solubility

COc1cc2c(cc1OC)CN1CCc3cc4c(cc3[C@@H]1C2)OCO4 50.2 µg/mL

* * *

assayOverview: Pharmacokinetics study in rats (gavage and intravenous)
Format: in vivo, SD rats
particulars: male, SD, rat, plasma, po, 20 mg/kg, gavage 20 mg/kg, mean of 3
measuredProperty: half-life (h)

COc1cc2c(cc1OC)CN1CCc3cc4c(cc3[C@@H]1C2)OCO4 3.26

* * *

assayOverview: Solubility in different pH solution and pH changes of the solution
Type: physicochemical
particulars: pH = 1 solution, pH 1, simulated gastric fluid, pH = 1 solution; read-out: Solubility (1)
measuredProperty: solubility

COc1cc2c(cc1OC)CN1CCc3cc4c(cc3[C@@H]1C2)OCO4 > 1000 µg/mL

* * *

assayOverview: Pharmacokinetics study in rats (gavage and intravenous)
Type: in vivo, SD rats
particulars: male, SD, rat, plasma, iv, 10 mg/kg, intravenous injection 10 mg/kg
measuredProperty: half-life (h)

COc1cc2c(cc1OC)CN1CCc3cc4c(cc3[C@@H]1C2)OCO4 5.44

* * *

targetOrSystem: α1B-AR (Homo sapiens, UniProt P35368)
Construct: expressed in transfected cells; host or cells: HEK293
Sequence (P35368 whole entry): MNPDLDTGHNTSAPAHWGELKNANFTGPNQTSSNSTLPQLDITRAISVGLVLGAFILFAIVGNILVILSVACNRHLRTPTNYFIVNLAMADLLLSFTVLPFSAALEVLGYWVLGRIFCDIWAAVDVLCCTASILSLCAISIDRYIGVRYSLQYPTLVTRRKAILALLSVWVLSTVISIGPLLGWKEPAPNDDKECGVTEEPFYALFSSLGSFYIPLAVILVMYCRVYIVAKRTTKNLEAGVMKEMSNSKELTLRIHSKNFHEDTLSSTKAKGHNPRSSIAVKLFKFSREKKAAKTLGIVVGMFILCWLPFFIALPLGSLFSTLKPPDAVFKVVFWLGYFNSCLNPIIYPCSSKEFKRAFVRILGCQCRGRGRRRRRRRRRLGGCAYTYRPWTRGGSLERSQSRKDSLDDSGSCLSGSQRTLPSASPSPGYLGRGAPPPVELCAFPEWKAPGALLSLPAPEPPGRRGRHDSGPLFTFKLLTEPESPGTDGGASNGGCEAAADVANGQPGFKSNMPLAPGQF
assayOverview: Calcium mobilization (Fluo-4) antagonism of phenylephrine in HEK293 cells expressing α1B-AR/Gα16
Format: cell-based
particulars: phenylephrine 30 nM

molecule	IC50, nM
COc1cc2c(cc1OC)[C@@H](C)N1CCc3cc(OC)c(OC)cc3[C@@H]1C2 [DC037002]	17200
COc1cc2c(cc1OC)[C@@H]1Cc3cc(C)cc(C)c3CN1CC2 [DC037011]	34300
COc1cc2c(cc1OC)[C@@H]1Cc3cc4c(cc3CN1CC2)OCO4 [DC037005]	1650
COc1cc2c(cc1OC)CN1CCc3cc4c(cc3[C@@H]1C2)OCO4 [DC037009]	5210
COc1cc2c(cc1OC)C1Cc3cc4c(cc3CN1CC2)OCO4 (stereo not drawn) [DC037008]	68800
COc1cc2c(cc1OC)CN1CCc3cc(OC)c(OC)cc3C1C2 (stereo not drawn) [DC037001]	174
CCOc1ccccc1OCCN[C@H](C)Cc1ccc(OC)c(S(N)(=O)=O)c1 [Tamsulosin, reference compound]	3.08
COc1cc2c(cc1OCc1ccccc1)C[C@H]1c3cc4c(cc3CCN1C2)OCO4 [DC037016]	4250
COc1cc2c(cc1OC)CN1CCc3cc(OC)c(OC)cc3[C@@H]1C2 [DC037003]	249000
COc1cc2c(cc1OC)CN1CCc3cc4c(cc3C1C2)OCO4 (stereo not drawn) [DC037012]	7520
COc1ccc2c(c1)CCN1Cc3cc(OC)c(OC)cc3C[C@@H]21 [DC037004]	189
COc1cc2c(cc1O)[C@@H]1Cc3cc4c(cc3CN1CC2)OCO4 [DC037013]	4310
COc1cc2c(c(OC)c1OC)CN1CCc3cc4c(cc3[C@@H]1C2)OCO4 [DC037010]	1200
COc1cc2c(cc1OCc1ccccc1)CN1CCc3cc4c(cc3[C@@H]1C2)OCO4 [DC037014]	35900
COc1ccc(OC)c2c1C[C@H]1c3cc4c(cc3CCN1C2)OCO4 [DC037007]	13000

* * *

log10 IC50 values for the molecules below.
targetOrSystem: α1A-AR (Homo sapiens)
Construct: expressed in transfected cells; host or cells: HEK293
assayOverview: Calcium mobilization (Fluo-4) antagonism of phenylephrine in HEK293 cells expressing α1A-AR/Gα16
Assay type: cell-based
particulars: HEK293 α1A-AR/Gα16, calcium mobilization, phenylephrine 30 nM
measuredProperty: log10 IC50 (log10 of the value in nM)

molecule	log10 IC50
COc1cc2c(cc1OC)[C@@H](C)N1CCc3cc(OC)c(OC)cc3[C@@H]1C2	2.70
COc1ccc(OC)c2c1C[C@H]1c3cc4c(cc3CCN1C2)OCO4	2.99
COc1cc2c(cc1OC)CN1CCc3cc(OC)c(OC)cc3[C@@H]1C2	1.96
COc1cc2c(cc1O)[C@@H]1Cc3cc4c(cc3CN1CC2)OCO4	2.43
COc1cc2c(cc1OC)CN1CCc3cc4c(cc3C1C2)OCO4 (centres unmarked)	2.41

* * *

targetOrSystem: α1B-AR (Homo sapiens, UniProt P35368)
Construct: expressed in transfected cells; host or cells: HEK293
assayOverview: Tag-lite receptor binding assay, HEK293 cells expressing SNAP-α1B-AR
YES if IC50 is below 50 nM. NO if not; exact matches included in NO.

molecule	label
CCOc1ccccc1OCCN[C@H](C)Cc1ccc(OC)c(S(N)(=O)=O)c1 [Tamsulosin, reference compound]	YES
COc1cc2c(cc1OCc1ccccc1)C[C@H]1c3cc4c(cc3CCN1C2)OCO4 [DC037016]	NO
COc1cc2c(cc1OC)CN1CCc3cc4c(cc3[C@@H]1C2)OCO4 [DC037009]	NO
C[C@H](Cc1cc2c(c(C(N)=O)c1)N(CCCO)CC2)NCCOc1ccccc1OCC(F)(F)F [Silodosin, reference compound]	YES

* * *

assayOverview: Solubility in different pH solution and pH changes of the solution
Assay type: physicochemical
particulars: pH = 1 solution, pH 1, simulated gastric fluid, pH = 1 solution; read-out: Solubility (2)
measuredProperty: solubility

COc1cc2c(cc1OC)CN1CCc3cc4c(cc3[C@@H]1C2)OCO4 > 1000 µg/mL

* * *

assayOverview: Pharmacokinetics study in rats (gavage and intravenous)
Assay type: in vivo, SD rats
particulars: male, SD, rat, plasma, po, 20 mg/kg, gavage 20 mg/kg, individual animals 1-3, read-out: MRT
measuredProperty: MRT (h)

COc1cc2c(cc1OC)CN1CCc3cc4c(cc3[C@@H]1C2)OCO4 6.45

* * *

targetOrSystem: α1A-AR (Homo sapiens, UniProt P35348)
Construct: expressed in transfected cells; host or cells: HEK293
Sequence (P35348 1-466): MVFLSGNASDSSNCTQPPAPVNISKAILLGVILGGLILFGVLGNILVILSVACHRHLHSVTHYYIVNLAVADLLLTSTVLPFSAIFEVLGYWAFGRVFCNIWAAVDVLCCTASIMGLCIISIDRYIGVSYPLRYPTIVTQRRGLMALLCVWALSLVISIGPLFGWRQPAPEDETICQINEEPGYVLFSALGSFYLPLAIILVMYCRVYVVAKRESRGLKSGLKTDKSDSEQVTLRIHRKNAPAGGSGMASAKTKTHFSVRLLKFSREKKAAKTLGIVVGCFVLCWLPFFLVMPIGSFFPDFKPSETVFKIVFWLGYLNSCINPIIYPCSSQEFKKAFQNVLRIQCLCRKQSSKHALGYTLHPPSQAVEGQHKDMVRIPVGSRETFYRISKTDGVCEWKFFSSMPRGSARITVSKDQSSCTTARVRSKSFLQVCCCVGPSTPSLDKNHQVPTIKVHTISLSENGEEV
assayOverview: Calcium mobilization (Fluo-4) antagonism of phenylephrine in HEK293 cells expressing α1A-AR/Gα16
Format: cell-based
particulars: HEK293 α1A-AR/Gα16, calcium mobilization, phenylephrine 30 nM
IC50 values for the compounds below.

compound	targetOrSystem	IC50 [nM]
COc1cc2c(cc1OC)[C@@H]1Cc3cc(C)cc(C)c3CN1CC2	α1A-AR (Homo sapiens, UniProt P35348)	532
COc1cc2c(c(OC)c1OC)CN1CCc3cc4c(cc3[C@@H]1C2)OCO4	α1A-AR (Homo sapiens, UniProt P35348)	238
COc1ccc2c(c1)CCN1Cc3cc(OC)c(OC)cc3C[C@@H]21	α1A-AR (Homo sapiens, UniProt P35348)	93.9
COc1cc2c(cc1OC)CN1CCc3cc4c(cc3[C@@H]1C2)OCO4	α1A-AR (Homo sapiens, UniProt P35348)	29.8
COc1cc2c(cc1OC)C1Cc3cc4c(cc3CN1CC2)OCO4 (stereo not drawn)	α1A-AR (Homo sapiens, UniProt P35348)	552
COc1cc2c(cc1OC)CN1CCc3cc(OC)c(OC)cc3C1C2 (stereo not drawn)	α1A-AR (Homo sapiens, UniProt P35348)	123
COc1cc2c(cc1OCc1ccccc1)C[C@H]1c3cc4c(cc3CCN1C2)OCO4	α1A-AR (Homo sapiens, UniProt P35348)	34.8
COc1cc2c(cc1OC)[C@@H]1Cc3cc4c(cc3CN1CC2)OCO4	α1A-AR (Homo sapiens, UniProt P35348)	160
COc1cc2c(cc1OCc1ccccc1)CN1CCc3cc4c(cc3[C@@H]1C2)OCO4	α1A-AR (Homo sapiens, UniProt P35348)	303

These entries and their values trace back to patent US9737517B2.
